- Test system: OVCAR-3
- Experiment Description: NCI tumour cell line growth inhibition, 48 h
Activity calls are given as the source filed them. Rule as the data show it: active = GI50 up to about 1.1 µM and inactive = higher.
Reported Property: GI50

Request: For the compound shown here, S=C1C(CCCOCc2ccccc2)C2CCCC23CC2(CCN13)OCCS2 (stereo unspecified) , give the reported GI50.
Response: > 10 µM (inactive)

Request: Lookup COC(=O)/C=C(/C(=O)OC)c1cc2ccc3c([nH]c4ccccc43)c(C)c-2c1
Response: 3.4 µM (inactive)

Request: Lookup O=C(NC(OCc1ccccc1)(C(F)(F)F)C(F)(F)F)OCc1ccccc1
Response: 15.3 µM (inactive)

Request: Lookup N=C(N)NCCN1CCCCCc2ccccc21
Response: > 10 µM (inactive)

Request: Lookup CN(C)/C=N\c1cccc2cnccc12
Response: 43.2 µM (inactive)

Request: Lookup O=[N+]([O-])c1nccn1CC(O)CN1CCCCC1 (stereo unspecified)
Response: > 100 µM (inactive)

Request: Lookup COC1=C2CC(C)CC(OC)C(OC(=O)CCCN)C(C)/C=C(\C)C(OC(N)=O)C(OC)/C=C\C=C(/C)C(=O)NC(=CC1=O)C2=O (stereo unspecified)
Response: 3.2 µM (inactive)

Request: Lookup COC1(OC)C2(Cl)C(Cl)=C(Cl)C1(Cl)C1C=CC=CC12 (stereo unspecified)
Response: > 100 µM (inactive)

Request: Lookup Cc1nc2ccccn2c1/N=N/c1ccc(C(=O)NN)cc1
Response: 45 µM (inactive)

Request: Lookup O=C(Nc1ccccc1C(=O)O)C(=O)C(C(=O)c1ccccc1-c1ccccc1)C1OC(=O)c2ccccc21 (stereo unspecified)
Response: 16.6 µM (inactive)

Request: Lookup CN(C(=O)C12C3C4C1C1C2C3C41C(=O)N(C)C(C)(C)C)C(C)(C)C (stereo unspecified)
Response: > 50 µM (inactive)

Request: Lookup O=C(CCc1ccccc1)NCCc1ccc(O)c(O)c1
Response: 22.2 µM (inactive)

Request: Lookup CCOc1cc(/C=N\N(C)C)cc(/C=N\N(C)C)c1O
Response: 31.7 µM (inactive)

Request: Lookup COC(=O)c1c(O)ccc2c1c1c(n2C)C(=O)c2ccccc2C1=O
Response: 35.3 µM (inactive)

Request: Lookup CC1=C(C(=O)Nc2ccccc2C)C(c2ccc(C3C(C(=O)Nc4ccccc4C)=C(C)NC(C)=C3C(=O)Nc3ccccc3C)cc2)C(C(=O)Nc2ccccc2C)=C(C)N1
Response: 6.67 µM (inactive)

Request: Lookup Nc1ccc2c3c1cccc3c(=O)n1c3ccc(Cc4ccc5c(c4)nc4c6ccc(N)c7cccc(c(=O)n54)c76)cc3nc21
Response: > 100 µM (inactive)

Request: Lookup Cc1ccc(C(C)(C)C[P+](C)(c2ccccc2)c2ccccc2)cc1
Response: 3.24 µM (inactive)

Request: Lookup COc1ccc(N2C(=O)[C@@H](N=[N+]=[N-])[C@@H]2[C@H]2COC(C)(C)O2)cc1
Response: > 100 µM (inactive)

Request: Lookup CSc1[nH]cnc1C(N)=S
Response: > 100 µM (inactive)

Request: Lookup Cc1ccc(Nc2n[nH]c(=S)s2)cc1C
Response: > 100 µM (inactive)

Request: Lookup N=C(CC/C(N)=N/O)NO
Response: > 100 µM (inactive)

====

- Tested on: PC-3
- Experiment Description: NCI tumour cell line growth inhibition, 48 h
Calls of active or inactive are those of the source. Rule as the data show it: active = GI50 up to about 1.1 µM and inactive = higher.
For each record, write down the corresponding GI50.

Request: // map Cc1ccc(N2C(N)=C(C#N)C(C#N)(C#N)C2c2ccccc2)cc1 (centres undefined) to recorded GI50 (system: PC-3)
Response: 18.8 µM (inactive)

Request: Lookup OCc1cc2c(ccc3sc4ccc5sc6ccc7ncccc7c6c5c4c32)s1
Response: 5.93 µM (inactive)

Request: Lookup CC(=O)OC1(C)C(=O)OC/C2=C/CN(C)CCC(OC(=O)C(O)(C(C)Cl)CC1C)C2=O.c1ccccc1 (centres undefined)
Response: > 100 µM (inactive)

Request: Lookup CC1=C(C(=O)Nc2ccccc2C)C(c2ccc(C3C(C(=O)Nc4ccccc4C)=C(C)NC(C)=C3C(=O)Nc3ccccc3C)cc2)C(C(=O)Nc2ccccc2C)=C(C)N1
Response: 4.39 µM (inactive)

Request: Lookup Cc1cn(CC2=NC3CCCCC3N2)c(=O)[nH]c1=O (centres undefined)
Response: > 100 µM (inactive)

Request: Lookup C/C(=C\CO)CC[C@@H]1[C@@]2(C)CCCC(C)(C)[C@@H]2CC[C@@]1(C)O
Response: 16.4 µM (inactive)

Request: Lookup O=C(O)c1cc2ccc3ccccc3c2oc1=O
Response: > 100 µM (inactive)

Request: Lookup C=CCN(c1cc(OC)c2[nH]c(C(=O)O)c(C)c2c1[N+](=O)[O-])S(C)(=O)=O
Response: > 100 µM (inactive)

Request: Lookup C[C@]12CC[C@@H]3c4ccc(OC(=O)c5ccccc5)cc4CC[C@H]3[C@@H]1CC[C@@H]2Oc1c2ccccc2nc2ccccc12
Response: 8.93 µM (inactive)

====

- System: OVCAR-3
- Experiment Description: NCI tumour cell line growth inhibition, 48 h
The source made the active and inactive calls. Rule as the data show it: active = GI50 up to about 1.1 µM and inactive = higher.
Reported Property: GI50

Request: For the compound shown here, COc1ccc(C[C@H](N)C(=O)N2C[C@@H](CO)C[C@@H](n3ccc(=O)[nH]c3=O)C2)cc1 , give the reported GI50.
Response: > 100 µM (inactive)

Request: Lookup O=C1N/C(=N/N=C\c2ccccc2)N/C1=C/c1ccc(Cl)cc1
Response: 17.4 µM (inactive)

Request: Lookup Cc1ccc(NC(=O)c2cc(S(=O)(=O)N3CCNNC3=O)c(S)cc2Cl)cc1
Response: > 100 µM (inactive)

Request: Lookup C=CCN(c1cc(OC)c2[nH]c(C(=O)O)c(C)c2c1[N+](=O)[O-])S(C)(=O)=O
Response: > 100 µM (inactive)

Request: Lookup CCOC(=O)c1c(N/C(S)=N/c2ccccc2)sc2c1CCOC2
Response: 87.9 µM (inactive)

Request: Lookup COc1cc2oc(=O)cc(C)c2cc1[N+](=O)[O-]
Response: 25.4 µM (inactive)

Request: Lookup CC1=C/C(=N\O)C(C(O)(C(F)(F)F)C(F)(F)F)C(C)(C)C1 (centres undefined)
Response: > 10 µM (inactive)

Request: Lookup CCOC(NC(=O)CC)(C(F)(F)F)C(F)(F)F
Response: > 100 µM (inactive)

Request: Lookup O=C(c1cc(Cl)cc(Cl)c1)N(C(=O)N1CCN(c2ccccc2)CC1)c1ccccc1
Response: 66.1 µM (inactive)

====

- System: OVCAR-3
- Experiment Description: NCI tumour cell line growth inhibition, 48 h
The source made the active and inactive calls. Rule as the data show it: active = GI50 up to about 1.1 µM and inactive = higher.
Answer with one of the outcomes given here: 1.0 for active, 0.0 for inactive

Request: Field: outcome | Entry: N#Cc1c(Nc2ccccc2)[n+]([O-])c2ccc(Cl)cc2[n+]1[O-]
Response: 0.0

Request: Lookup C[C@@H](N[C@H]1CCC[C@@H]1O)c1ccccc1.C[C@@H](N[C@H]1CCC[C@H]1O)c1ccccc1
Response: 0.0

Request: Lookup Cc1nc(C)c(N2CCN(C(=O)NC(CCC(=O)O)C(=O)O)CC2)c(O)n1 (configuration not stated)
Response: 0.0

Request: Lookup O=C(c1cccs1)N(C(=S)N1CCN(c2ccccc2)CC1)C1CCCCC1
Response: 0.0

Request: Lookup CNC1(c2cc3ccccc3s2)CCCCC1
Response: 0.0

Request: Lookup CC1(C)C[C@H]2C3=CC[C@@H]4[C@@]5(C)CC[C@H](O)C(C)(C)[C@@H]5CC[C@@]4(C)[C@]3(C)C[C@@H](O)[C@@]23C[C@@H]1OC3=O
Response: 0.0

Request: Lookup CC1(C)CC(/C=C2/OC(=O)c3ccccc32)=C(C(N)=O)C(=O)O1
Response: 0.0

Request: Lookup CC1CC(=O)Nc2ccccc2N1C(=O)CN1CCC(CCCCN(C)C)CC1 (configuration not stated)
Response: 0.0

Request: Lookup COc1cc([C@@H]2c3cc4c(cc3[C@@H](/N=C/c3ccc(C(=O)O[C@@H](C(=O)O[C@H]5C[C@@]6(O)[C@@H](OC(=O)c7ccccc7)[C@@H]7[C@]8(OC(C)=O)CO[C@@H]8C[C@H](O)[C@@]7(C)C(=O)[C@H](OC(C)=O)C(=C5C)C6(C)C)[C@@H](NC(=O)c5ccccc5)c5ccccc5)cc3)[C@H]3COC(=O)[C@H]23)OCO4)cc(OC)c1O
Response: 1.0

Request: Lookup C[C@]12C/C(=C/O)C(=O)C(O)=C1CC[C@@H]1C2CC[C@@]2(C)C1CC[C@@H]2O (some centres not stated)
Response: 0.0

Request: Lookup CN1C(=O)c2ccccc2OC12C=Cc1c(ccc3ccccc13)O2 (configuration not stated)
Response: 0.0

Request: Lookup CCOC(=O)N1C(c2ccccc2)C=CC(c2ccccc2)N1C(=O)OCC (configuration not stated)
Response: 0.0

Request: Lookup COc1ccc2c(c1)CC[C@@H]1[C@@H]2CC[C@]2(C)[C@@H](O)/C(=C/c3ccncc3)C[C@@H]12
Response: 0.0

Request: Lookup Cc1ccc(SC(=O)N2C(=S)N=C(NC3CCCCC3)C23CCCCC3)cc1
Response: 0.0

Request: Lookup O=C(O)CNc1c2ccccc2[n+]([O-])c2ccccc12
Response: 0.0

Request: Lookup C[n+]1c2ccccc2c(CNC(CS)C(=O)O)c2ccccc21 (configuration not stated)
Response: 0.0

Request: Lookup Cc1cc(S(=O)(=O)Nc2nc3ccccc3nc2-c2ccc(Cl)cc2)c(S)cc1Cl
Response: 0.0
